Where do the numbers come from? From PubChem BioAssay.

Let's look at some compounds and their measured composite z-score.
# experiment description: small molecules captured by biotinylated probe aFSTL3 – biochemical, small-molecule microarray, fluorescence 635/667, stem cell growth factor project, primary screen (AID 1064);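 note: measures binding of the biotinylated anti-FSTL3 antibody to printed compounds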
# condition notes: higher = more signal

compound	composite z-score
O=P(NCC1(CC2(c3ccccc3)CO2)CC1)(c1ccccc1)c1ccccc1 (configuration not stated)	0.565
O=[N+]([O-])c1ccc(C[n+]2ccc(CCCO)cc2)o1	0.138
CC(=O)n1cc(C(O)C2C=CC3C(=O)N(c4ccccc4)C(=O)C3N2Nc2ccc(C#N)cc2)c2ccccc21 (configuration not stated)	-0.0594
CCCC[C@@H]1C[C@H]1[C@@H](NC(=O)c1ccco1)c1ccccc1	1.29
CCCNC(=O)[C@@]1(C)c2ccccc2C(=O)N(Cc2cc(C(F)(F)F)cc(C(F)(F)F)c2)[C@H]1c1ccc(CO)cc1	0.177
COc1ccc([Si](C)(C)[C@H]2[C@H](CCO)O[C@@]3(C(=O)N(Cc4cccc(N5C(=O)c6cccc7cccc5c67)c4)c4ccccc43)[C@@H]2C)cc1	0.0761
C=CCNC(=O)[C@H]1[C@@H]2C(=O)O[C@@H](c3ccccc3)[C@@H](c3ccccc3)N2[C@@H](c2ccc(OCCO)cc2)[C@]12C(=O)N(C(=O)OCCOC)c1ccc(C#CC3(O)CCCCCC3)cc12	-0.0322

====

# experiment description: probe aNOTCH2 binding on compound microarray – biochemical, small-molecule microarray, 635/667 nm fluorescence, primary screen (AID 1121);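 note: score merges feature fluorescence read at 667 nm with its signal to noise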
# condition notes: higher = more signal
Let's look at some compounds and their measured composite z-score.

compound	composite z-score
COc1ccc([Si](C)(C)[C@H]2[C@H](CC(=O)N3Cc4ccccc4C[C@H]3CO)O[C@@]3(C(=O)N(Cc4cccc(I)c4)c4ccccc43)[C@@H]2C)cc1	-0.125
COCC1C2CC[C@H]3C(OCc4ccc(F)cc4C(F)(F)F)OC[C@]4(C)[C@H]3C2=C(CN4C(=O)OC(C)(C)C)[C@H](C)C1COC (stereo partly specified)	0.214
CO[C@H]1O[C@H](CO)[C@@H](OC(=O)Nc2ccc(C(F)(F)F)cc2)[C@H](OC(=O)Nc2ccccc2)[C@@H]1OC(=O)Nc1ccccc1	0.0405
NC(=O)NCC#Cc1ccc2c(c1)[C@]1(C(=O)N2)[C@H](c2ccc(O)cc2)N2[C@H](c3ccccc3)[C@H](c3ccccc3)OC(=O)[C@H]2[C@@H]1C(=O)N1CCN(c2ncccn2)CC1	-0.0048
C=CCOC(=O)[C@H]1[C@@H]2C(=O)O[C@@H](c3ccccc3)[C@@H](c3ccccc3)N2[C@@H](c2ccc(OCCOC(=O)[C@@H]3C[C@@H]4C(=O)NCC(=O)N4[C@@H]3c3ccc(O)cc3)cc2)[C@]12C(=O)Nc1ccc(I)cc12	-0.0583
COC(=O)[C@@]1(Cc2ccc(OC)cc2)[C@H]2c3cc(C(=O)N4CCCC4)n(CCN4CCOCC4)c3C[C@H]2CN1C(=O)c1ccccc1	1.05
O=C1OCCC=C[C@H]2OC34C=CCN(c5ccc6ccccc6c5)C(=O)[C@H]3N(CCCCCCO)C(=O)[C@@H]4C12 (stereo partly specified)	-0.14
[N-]=[N+]=NCc1ccccc1[C@H]1OC(c2ccc(OCCCO)cc2)=N[C@@]1(Cc1ccccc1)C(=O)NCC(O)CO (stereo partly specified)	-0.0013
CC(C)OC(=O)C1=CCC(c2cccc(Cl)c2)O1 (stereo unspecified)	-0.169
CC(C)(C)OC(=O)CC[C@@]1(C(=O)N2CCOCC2)N=C(c2ccc(OCCCO)cc2)O[C@@H]1c1ccccc1N=[N+]=[N-]	-0.0463
O=C1OCCC/C=C\[C@H]2OC34C=CCN(CCN5CCOCC5)C(=O)[C@H]3N(CCO)C(=O)[C@@H]4C12 (stereo partly specified)	-0.211
[N-]=[N+]=NCc1ccccc1C[C@]1(C(=O)N2CCOCC2)N=C(c2ccc(OCCCO)cc2)O[C@H]1c1ccccc1	-0.14
COCCCNC(=O)[C@@]1(C)c2ccccc2C(=O)N(Cc2ccccc2)[C@H]1c1ccc(CO)cc1	-0.189
O=C1O[C@@H](c2ccccc2)[C@@H](c2ccccc2)N2[C@@H](c3ccc(O)cc3)[C@]3(C(=O)Nc4ccccc43)[C@@H](C(=O)N3CCCCCCC3)[C@H]12	0.464
COCCOC(=O)N1C(=O)[C@@]2(c3ccccc31)[C@H](c1ccc(O)cc1)N1[C@H](c3ccccc3)[C@H](c3ccccc3)OC(=O)[C@H]1[C@@H]2C(N)=O	-0.114
O=C1OCC=C[C@H]2OC34C=CCN(c5ccc6ccccc6c5)C(=O)[C@H]3N(CCO)C(=O)[C@@H]4[C@@H]12 (stereo partly specified)	-0.115
O=C1[C@H]2C=C(Br)[C@H](C[C@@H]2OCCOCCO)[C@@]12CO2	-0.0418
CC(=O)N1Cc2ccccc2C[C@@]2(N=C(c3ccc(OCCCO)cc3)O[C@H]2c2ccccc2)C1=O	0.139
C=C(C)[C@@H]1CC=C(C(O)C2C=CC3C(=O)N(Cc4ccccc4)C(=O)C3N2n2cnnc2)CC1 (stereo partly specified)	-0.0907
C=CCNC(=O)[C@H]1[C@@H]2C(=O)O[C@@H](c3ccccc3)[C@@H](c3ccccc3)N2[C@@H](c2ccc(O)cc2)[C@]12C(=O)Nc1ccc(C#Cc3ccc(OC)cc3)cc12	0.0086
CC(=O)NCCCC[C@@H]1NC(=O)[C@@H]2C[C@H](C(=O)NCCCCCC[N+](C)(C)C)[C@H](c3cccc(OCCO)c3)N2C1=O	-0.0896
COCCOC(=O)N1C(=O)[C@@]2(c3ccccc31)[C@H](C(=O)N1CCCCCCC1)[C@H]1C(=O)O[C@H](c3ccccc3)[C@H](c3ccccc3)N1[C@@H]2c1ccccc1OCCO	0.699
COCCOC(=O)N1C(=O)[C@@]2(c3cc(C#Cc4ccc(OC)cc4)ccc31)[C@H](c1ccc(O)cc1)N1[C@H](c3ccccc3)[C@H](c3ccccc3)OC(=O)[C@H]1[C@@H]2C(=O)N1CCN(c2ncccn2)CC1	-0.0956
COc1ccc([Si](C)(C)[C@@H]2[C@@H](CCO)O[C@]3(C(=O)N(Cc4ccc(N5C(=O)c6cccc7cccc5c67)cc4)c4ccccc43)[C@H]2C)cc1	-0.119
O=C1OCC=C[C@H]2OC34C=CCN(c5ccc(Cl)cc5)C(=O)[C@H]3N(CCCO)C(=O)[C@@H]4[C@@H]12 (stereo partly specified)	-0.164
COc1ccc([Si](C)(C)[C@@H]2[C@@H](CCO)O[C@]3(C(=O)N(Cc4cccc(N(C=O)c5ccccc5)c4)c4ccccc43)[C@H]2C)cc1	-0.0876
